Molecular target: T1, FGFR4 extracellular domain, immobilized (R4-Fc) (UniProt P22455 22-369)
T1 construct: extracellular domain; also called FDCPR4-Fc
T1 sequence (looked up): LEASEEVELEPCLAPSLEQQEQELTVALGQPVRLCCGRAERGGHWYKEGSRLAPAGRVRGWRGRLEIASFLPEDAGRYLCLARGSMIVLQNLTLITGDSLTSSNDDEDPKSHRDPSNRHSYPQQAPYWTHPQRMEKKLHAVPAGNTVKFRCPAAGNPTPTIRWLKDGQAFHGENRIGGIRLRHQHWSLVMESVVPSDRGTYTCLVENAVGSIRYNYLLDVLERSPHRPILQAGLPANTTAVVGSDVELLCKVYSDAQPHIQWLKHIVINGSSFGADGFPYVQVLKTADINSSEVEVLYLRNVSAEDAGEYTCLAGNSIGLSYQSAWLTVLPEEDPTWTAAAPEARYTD
Test: ELISA: biotinylated ligand on immobilized FGFR-Fc, HRP-streptavidin
# reported EC50; entries follow
Express the result in ng/mL but write the number alone.

Before answering, review these 3 worked examples.
FGF-18^Δ37 (ligand, biotinylated in the immobilized receptor assays (sites not given), E. coli expressed; Numbering includes the signal peptide (1-27); also called v1) MENQTRARDDVSRKQLRLYQLYSRTSGKHIQVLGRRISARGEDGDKYAQLLVETDTFGSQVRIKGKETEFYLCMNRKGKLVGKPDGTSKECVFIEKVLENNYTALMSAKYSGWYVGFTKKGRPRKGPKTRENQQDVHFMKRYPKGQPELQKPFKYTTVTKRSRRIRPTHPA | 5.86
FGF-18^Δ45 (ligand, biotinylated in the immobilized receptor assays (sites not given), E. coli expressed; Numbering includes the signal peptide (1-27); also called v2) MDVSRKQLRLYQLYSRTSGKHIQVLGRRISARGEDGDKYAQLLVETDTFGSQVRIKGKETEFYLCMNRKGKLVGKPDGTSKECVFIEKVLENNYTALMSAKYSGWYVGFTKKGRPRKGPKTRENQQDVHFMKRYPKGQPELQKPFKYTTVTKRSRRIRPTHPA | 8.1
FGF-18^Δ51 (ligand, biotinylated in the immobilized receptor assays (sites not given), E. coli expressed; Numbering includes the signal peptide (1-27); also called v3) MLRLYQLYSRTSGKHIQVLGRRISARGEDGDKYAQLLVETDTFGSQVRIKGKETEFYLCMNRKGKLVGKPDGTSKECVFIEKVLENNYTALMSAKYSGWYVGFTKKGRPRKGPKTRENQQDVHFMKRYPKGQPELQKPFKYTTVTKRSRRIRPTHPA | 9.93

Quick note, EC50 for FGF-18 (recombinant wild type, mature form without the signal peptide) (ligand, biotinylated in the immobilized receptor assays (sites not given), Expressed in E. coli from pET9a and purified on heparin Sepharose; also called FGF-18 wild type; F18 w.t) MENVDFRIHVENQTRARDDVSRKQLRLYQLYSRTSGKHIQVLGRRISARGEDGDKYAQLLVETDTFGSQVRIKGKETEFYLCMNRKGKLVGKPDGTSKECVFIEKVLENNYTALMSAKYSGWYVGFTKKGRPRKGPKTRENQQDVHFMKRYPKGQPELQKPFKYTTVTKRSRRIRPTHPA landed at 9.23

The measured values listed here are drawn from patent US20130225493A1.
